Assay: MTT cell viability assay
Assay type: cell-based
Settings: human, HaCaT cells (immortal keratinocytes), HaCaT normal cell line, 72 h (table footnote), read-out: Cytotoxic activity IC50 (converted)
reportedProperty: IC50 at 72 h

See these solved cases before continuing.
compound	IC50 at 72 h
COc1ccccc1C=Nn1c(-c2cccc(F)c2)n[nH]c1=S	98.1 µM
Cc1ccccc1C=Nn1c(-c2cccc(F)c2)n[nH]c1=S	> 100 µM
CCCCOc1ccc(C=Nn2c(-c3cccc(F)c3)n[nH]c2=S)cc1	> 100 µM

I'm hoping you can list IC50 at 72 h for every compound here, please.
1. COc1cccc(C=Nn2c(-c3cccc(F)c3)n[nH]c2=S)c1
2. COc1cccc2c1C(=O)c1c(O)c3c(c(O)c1C2=O)C[C@@](O)(C(=O)CO)C[C@@H]3O[C@H]1C[C@H](N)[C@H](O)[C@H](C)O1 [Doxorubicin, reference compound]
3. O=[N+]([O-])c1ccc(C=Nn2c(-c3cccc(F)c3)n[nH]c2=S)cc1
4. Cc1ccc(C=Nn2c(-c3cccc(F)c3)n[nH]c2=S)cc1

Output:
["> 100 µM", "0.3 µM", "> 100 µM", "> 100 µM"]

###

Form: system (Micrococcus luteus ATCC 10240), quantity (MIC), values below.

compound	MIC
Cc1ccc(C=Nn2c(-c3cccc(F)c3)n[nH]c2=S)cc1 [RO1]	> 1000 µg/mL

I'm hoping you can list MIC for every compound here, please.
1. COc1cccc(C=Nn2c(-c3cccc(F)c3)n[nH]c2=S)c1 [RO11]
2. COc1ccccc1C=Nn1c(-c2cccc(F)c2)n[nH]c1=S [RO12]

Output:
> 1000 µg/mL
> 1000 µg/mL

I'm hoping you can list MIC for every compound here, please.
1. O=[N+]([O-])c1ccc(C=Nn2c(-c3cccc(F)c3)n[nH]c2=S)cc1 [RO3]
2. Fc1ccc(C=Nn2c(-c3cccc(F)c3)n[nH]c2=S)cc1 [RO7]
3. Cc1cccc(C=Nn2c(-c3cccc(F)c3)n[nH]c2=S)c1 [RO9]
4. Cc1ccccc1C=Nn1c(-c2cccc(F)c2)n[nH]c1=S [RO10]
5. CCCCOc1ccc(C=Nn2c(-c3cccc(F)c3)n[nH]c2=S)cc1 [RO8]
6. COc1ccc(C=Nn2c(-c3cccc(F)c3)n[nH]c2=S)cc1 [RO4]

Output:
["> 1000 µg/mL", "250 µg/mL", "125 µg/mL", "> 1000 µg/mL", "125 µg/mL", "125 µg/mL"]

###

Form: system (Candida glabrata ATCC 90030), quantity (MIC), values below.

See these solved cases before continuing.
molSmiles	valueMeasured
Cc1cccc(C=Nn2c(-c3cccc(F)c3)n[nH]c2=S)c1	> 1000 µg/mL
Cc1ccccc1C=Nn1c(-c2cccc(F)c2)n[nH]c1=S	500 µg/mL
COc1ccccc1C=Nn1c(-c2cccc(F)c2)n[nH]c1=S	500 µg/mL
Fc1ccc(C=Nn2c(-c3cccc(F)c3)n[nH]c2=S)cc1	> 1000 µg/mL
O=[N+]([O-])c1ccc(C=Nn2c(-c3cccc(F)c3)n[nH]c2=S)cc1	> 1000 µg/mL

I'm hoping you can list MIC for every compound here, please.
1. COc1cccc(C=Nn2c(-c3cccc(F)c3)n[nH]c2=S)c1
2. CCCCOc1ccc(C=Nn2c(-c3cccc(F)c3)n[nH]c2=S)cc1
3. Cc1ccc(C=Nn2c(-c3cccc(F)c3)n[nH]c2=S)cc1
4. COc1ccc(C=Nn2c(-c3cccc(F)c3)n[nH]c2=S)cc1

Output:
1. 500 µg/mL
2. > 1000 µg/mL
3. > 1000 µg/mL
4. > 1000 µg/mL

###

I'd appreciate it if you could supply melting point values for the items below.

See these solved cases before continuing.
molSmiles	reportedProperty	valueMeasured
COc1ccccc1C=Nn1c(-c2cccc(F)c2)n[nH]c1=S	melting point	140 to 143 °C
CCCOc1ccc(/C=N/n2c(-c3cccc(F)c3)n[nH]c2=S)cc1	melting point	189 to 192 °C
Cc1ccc(C=Nn2c(-c3cccc(F)c3)n[nH]c2=S)cc1	melting point	227 to 230 °C

I'm hoping you can list melting point for every compound here, please.
1. COc1cccc(C=Nn2c(-c3cccc(F)c3)n[nH]c2=S)c1
2. O=[N+]([O-])c1ccc(C=Nn2c(-c3cccc(F)c3)n[nH]c2=S)cc1

Output:
1: 203 to 204 °C; 2: 230 to 231 °C

I'm hoping you can list melting point for every compound here, please.
1. Cc1cccc(C=Nn2c(-c3cccc(F)c3)n[nH]c2=S)c1
2. COc1ccc(C=Nn2c(-c3cccc(F)c3)n[nH]c2=S)cc1
3. Cc1ccccc1C=Nn1c(-c2cccc(F)c2)n[nH]c1=S
4. CCCCOc1ccc(C=Nn2c(-c3cccc(F)c3)n[nH]c2=S)cc1

Output:
1: 232 to 234 °C; 2: 215 to 216 °C; 3: 223 to 224 °C; 4: 183 to 185 °C

Task: # lookup: melting point of Fc1ccc(C=Nn2c(-c3cccc(F)c3)n[nH]c2=S)cc1
Output: 217 to 218 °C

###

Test system: PC3
Experiment: MTT cell viability assay
Assay type: cell-based, human
Settings: Homo sapiens, PC-3; PC3, MTT, 72 h (table footnote); read-out: Cytotoxic activity IC50
I'd appreciate it if you could supply IC50 values for the items below.

See these solved cases before continuing.
molecule	testSystem	IC50
Cc1cccc(C=Nn2c(-c3cccc(F)c3)n[nH]c2=S)c1	PC3	> 100 µM
COc1cccc2c1C(=O)c1c(O)c3c(c(O)c1C2=O)C[C@@](O)(C(=O)CO)C[C@@H]3O[C@H]1C[C@H](N)[C@H](O)[C@H](C)O1 [Doxorubicin, reference compound]	PC3	0.3 µM
COc1ccc(C=Nn2c(-c3cccc(F)c3)n[nH]c2=S)cc1	PC3	> 100 µM

Now for a further molecule.
Task: # get_value(readout= IC50, system= PC3) for COc1cccc(C=Nn2c(-c3cccc(F)c3)n[nH]c2=S)c1
Output: > 100 µM

###

Form: system (Staphylococcus aureus ATCC 6538), quantity (MIC), values below.

molSmiles	reportedProperty	valueMeasured
Fc1ccc(C=Nn2c(-c3cccc(F)c3)n[nH]c2=S)cc1	MIC	500 µg/mL
Cc1cccc(C=Nn2c(-c3cccc(F)c3)n[nH]c2=S)c1	MIC	125 µg/mL
CCCCOc1ccc(C=Nn2c(-c3cccc(F)c3)n[nH]c2=S)cc1	MIC	250 µg/mL
COc1ccc(C=Nn2c(-c3cccc(F)c3)n[nH]c2=S)cc1	MIC	500 µg/mL
Cc1ccc(C=Nn2c(-c3cccc(F)c3)n[nH]c2=S)cc1	MIC	> 1000 µg/mL
COc1cccc(C=Nn2c(-c3cccc(F)c3)n[nH]c2=S)c1	MIC	> 1000 µg/mL
O=[N+]([O-])c1ccc(C=Nn2c(-c3cccc(F)c3)n[nH]c2=S)cc1	MIC	> 1000 µg/mL
COc1ccccc1C=Nn1c(-c2cccc(F)c2)n[nH]c1=S	MIC	> 1000 µg/mL

Now for a further compound.
Task: # lookup: MIC of Cc1ccccc1C=Nn1c(-c2cccc(F)c2)n[nH]c1=S
Output: 125 µg/mL

###

Form: system (Candida auris CDC B11903), quantity (MIC), values below.

See these solved cases before continuing.
compound	MIC
CCCCOc1ccc(C=Nn2c(-c3cccc(F)c3)n[nH]c2=S)cc1 [RO8]	> 1000 µg/mL
COc1ccc(C=Nn2c(-c3cccc(F)c3)n[nH]c2=S)cc1 [RO4]	1000 µg/mL
Cc1ccc(C=Nn2c(-c3cccc(F)c3)n[nH]c2=S)cc1 [RO1]	> 1000 µg/mL
Cc1cccc(C=Nn2c(-c3cccc(F)c3)n[nH]c2=S)c1 [RO9]	> 1000 µg/mL
Cc1ccccc1C=Nn1c(-c2cccc(F)c2)n[nH]c1=S [RO10]	1000 µg/mL

I'm hoping you can list MIC for every compound here, please.
1. COc1cccc(C=Nn2c(-c3cccc(F)c3)n[nH]c2=S)c1 [RO11]
2. O=[N+]([O-])c1ccc(C=Nn2c(-c3cccc(F)c3)n[nH]c2=S)cc1 [RO3]
3. COc1ccccc1C=Nn1c(-c2cccc(F)c2)n[nH]c1=S [RO12]
4. Fc1ccc(C=Nn2c(-c3cccc(F)c3)n[nH]c2=S)cc1 [RO7]

Output:
1000 µg/mL
1000 µg/mL
500 µg/mL
> 1000 µg/mL

###

Form: system (Candida tropicalis ATCC 1369), quantity (MIC), values below.
Give bare numbers, in µg/mL.

See these solved cases before continuing.
molSmiles	testSystem	MIC [µg/mL]
COc1ccccc1C=Nn1c(-c2cccc(F)c2)n[nH]c1=S	Candida tropicalis ATCC 1369	500
O=[N+]([O-])c1ccc(C=Nn2c(-c3cccc(F)c3)n[nH]c2=S)cc1	Candida tropicalis ATCC 1369	500
COc1ccc(C=Nn2c(-c3cccc(F)c3)n[nH]c2=S)cc1	Candida tropicalis ATCC 1369	1000
Cc1ccccc1C=Nn1c(-c2cccc(F)c2)n[nH]c1=S	Candida tropicalis ATCC 1369	500

Now for a further compound.
Task: # lookup: MIC of COc1cccc(C=Nn2c(-c3cccc(F)c3)n[nH]c2=S)c1
Output: 1000

src = paper PMC10057893
